Provenance of the data: the supplement of paper PMC10307832

Assignment: determine reported relative viability for the given compounds.
- System: HOP-62
- experiment.summary: relative viability (nuclei count vs DMSO), 5 days (fraction); higher = more cells survive
- test.settings: first compound 1 µM
Quick one: just the number, no unit, thanks!

Supply relative viability measured with HOP-62 for O=c1cc(N2CCOCC2)oc2c(-c3cccc4c3sc3ccccc34)cccc12 + N=C(N)NC(=N)NCCc1ccccc1 [Phenformin] (partner 250 µM) .
0.704

Supply relative viability measured with HOP-62 for O=c1cc(N2CCOCC2)oc2c(-c3cccc4c3sc3ccccc34)cccc12 + CCNC(=O)c1noc(-c2cc(C(C)C)c(O)cc2O)c1-c1ccc(CN2CCOCC2)cc1 [Luminespib] (partner 0.01 µM) .
0.974

Supply relative viability measured with HOP-62 for CCN(CC)CCCCNc1ncc2cc(-c3cc(OC)cc(OC)c3)c(NC(=O)NC(C)(C)C)nc2n1 + CCNC(=O)c1noc(-c2cc(C(C)C)c(O)cc2O)c1-c1ccc(CN2CCOCC2)cc1 [Luminespib] (partner 0.01 µM) .
0.888

Supply relative viability measured with HOP-62 for CCN(CC)CCCCNc1ncc2cc(-c3cc(OC)cc(OC)c3)c(NC(=O)NC(C)(C)C)nc2n1 + CS(=O)(=O)N1CCN(Cc2cc3nc(-c4cccc5[nH]ncc45)nc(N4CCOCC4)c3s2)CC1 [Pictilisib] (partner 1 µM) .
0.985

Supply relative viability measured with HOP-62 for O=c1cc(N2CCOCC2)oc2c(-c3cccc4c3sc3ccccc34)cccc12 + CC1(C)CCC(c2ccc(Cl)cc2)=C(CN2CCN(c3ccc(C(=O)NS(=O)(=O)c4ccc(N[C@H](CCN5CCOCC5)CSc5ccccc5)c(S(=O)(=O)C(F)(F)F)c4)cc3)CC2)C1 [Navitoclax] (partner 0.5 µM) .
1.07

Supply relative viability measured with HOP-62 for O=c1cc(N2CCOCC2)oc2c(-c3cccc4c3sc3ccccc34)cccc12 + NC(=O)Nc1cc(-c2cccc(F)c2)sc1C(=O)N[C@H]1CCCNC1 [AZD7762] (partner 0.2 µM) .
0.689

Supply relative viability measured with HOP-62 for CCN(CC)CCCCNc1ncc2cc(-c3cc(OC)cc(OC)c3)c(NC(=O)NC(C)(C)C)nc2n1 + Nc1nc2[nH]cc(CCc3ccc(C(=O)N[C@@H](CCC(=O)O)C(=O)O)cc3)c2c(=O)[nH]1 [Pemetrexed] (partner 0.2 µM) .
0.351

Supply relative viability measured with HOP-62 for O=c1cc(N2CCOCC2)oc2c(-c3cccc4c3sc3ccccc34)cccc12 + O=C(CCCCCCC(=O)Nc1ccccc1)NO [Vorinostat] (partner 1 µM) .
0.685

Supply relative viability measured with HOP-62 for O=c1cc(N2CCOCC2)oc2c(-c3cccc4c3sc3ccccc34)cccc12 + Nc1ncn([C@H]2C[C@H](O)[C@@H](CO)O2)c(=O)n1 [Decitabine] (partner 2 µM) .
0.196

Supply relative viability measured with HOP-62 for O=c1cc(N2CCOCC2)oc2c(-c3cccc4c3sc3ccccc34)cccc12 + C[C@]1(O)C[C@@H](c2nc(-c3ccc4ccc(-c5ccccc5)nc4c3)c3c(N)nccn32)C1 [Linsitinib] (partner 1 µM) .
0.989

---

- System: PC-14
- experiment.summary: relative viability (nuclei count vs DMSO), 5 days (fraction); higher = more cells survive
- test.settings: first compound 0.01 µM
Assignment: determine reported relative viability for the given molecules.
Quick one: just the number, no unit, thanks!

Report relative viability, nothing else, for this molecule: CCN(CC)CCCCNc1ncc2cc(-c3cc(OC)cc(OC)c3)c(NC(=O)NC(C)(C)C)nc2n1 + CS(=O)(=O)N1CCN(Cc2cc3nc(-c4cccc5[nH]ncc45)nc(N4CCOCC4)c3s2)CC1 [Pictilisib] (partner 1 µM)
0.702

Report relative viability, nothing else, for this molecule: CCN(CC)CCCCNc1ncc2cc(-c3cc(OC)cc(OC)c3)c(NC(=O)NC(C)(C)C)nc2n1 + CC(C)C[C@H](NC(=O)[C@H](Cc1ccccc1)NC(=O)c1cnccn1)B(O)O [Bortezomib] (partner 0.002 µM)
0.894

Report relative viability, nothing else, for this molecule: O=c1cc(N2CCOCC2)oc2c(-c3cccc4c3sc3ccccc34)cccc12 + CC(C)C[C@H](NC(=O)[C@H](Cc1ccccc1)NC(=O)c1cnccn1)B(O)O [Bortezomib] (partner 0.002 µM)
0.954

Report relative viability, nothing else, for this molecule: O=c1cc(N2CCOCC2)oc2c(-c3cccc4c3sc3ccccc34)cccc12 + Nc1ncn([C@H]2C[C@H](O)[C@@H](CO)O2)c(=O)n1 [Decitabine] (partner 2 µM)
0.274

Report relative viability, nothing else, for this molecule: CCN(CC)CCCCNc1ncc2cc(-c3cc(OC)cc(OC)c3)c(NC(=O)NC(C)(C)C)nc2n1 + Cc1nc(Nc2ncc(C(=O)Nc3c(C)cccc3Cl)s2)cc(N2CCN(CCO)CC2)n1 [Dasatinib] (partner 0.075 µM)
0.263

Report relative viability, nothing else, for this molecule: CCN(CC)CCCCNc1ncc2cc(-c3cc(OC)cc(OC)c3)c(NC(=O)NC(C)(C)C)nc2n1 + CC(=O)Nc1cccc(-n2c(=O)n(C3CC3)c(=O)c3c(Nc4ccc(I)cc4F)n(C)c(=O)c(C)c32)c1 [Trametinib] (partner 0.02 µM)
0.956

Report relative viability, nothing else, for this molecule: CCN(CC)CCCCNc1ncc2cc(-c3cc(OC)cc(OC)c3)c(NC(=O)NC(C)(C)C)nc2n1 + CC1(C)CCC(c2ccc(Cl)cc2)=C(CN2CCN(c3ccc(C(=O)NS(=O)(=O)c4ccc(N[C@H](CCN5CCOCC5)CSc5ccccc5)c(S(=O)(=O)C(F)(F)F)c4)cc3)CC2)C1 [Navitoclax] (partner 0.5 µM)
1.11

---

- Test system: HOP-62
- experiment.summary: relative viability (nuclei count vs DMSO), 5 days (fraction); higher = more cells survive
- test.settings: first compound 0.03162 µM
# note: exactly 0.7 is not below, so it is Condition not met; use Condition met for relative viability strictly under it

Consider the compound CCN(CC)CCCCNc1ncc2cc(-c3cc(OC)cc(OC)c3)c(NC(=O)NC(C)(C)C)nc2n1 + CC(=O)c1c(C)c2cnc(Nc3ccc(N4CCNCC4)cn3)nc2n(C2CCCC2)c1=O [Palbociclib] (partner 0.5 µM) . Is its relative viability strictly less than 0.7?
Condition met

Consider the compound O=c1cc(N2CCOCC2)oc2c(-c3cccc4c3sc3ccccc34)cccc12 + Nc1ncn([C@H]2C[C@H](O)[C@@H](CO)O2)c(=O)n1 [Decitabine] (partner 2 µM) . Is its relative viability strictly less than 0.7?
Condition met

Consider the compound O=c1cc(N2CCOCC2)oc2c(-c3cccc4c3sc3ccccc34)cccc12 + CC(=O)c1c(C)c2cnc(Nc3ccc(N4CCNCC4)cn3)nc2n(C2CCCC2)c1=O [Palbociclib] (partner 0.5 µM) . Is its relative viability strictly less than 0.7?
Condition met

Consider the compound CCN(CC)CCCCNc1ncc2cc(-c3cc(OC)cc(OC)c3)c(NC(=O)NC(C)(C)C)nc2n1 + C[C@@H](Oc1cc(-c2cnn(C3CCNCC3)c2)cnc1N)c1c(Cl)ccc(F)c1Cl [Crizotinib] (partner 1 µM) . Is its relative viability strictly less than 0.7?
Condition not met

Consider the compound CCN(CC)CCCCNc1ncc2cc(-c3cc(OC)cc(OC)c3)c(NC(=O)NC(C)(C)C)nc2n1 + CCNC(=O)c1noc(-c2cc(C(C)C)c(O)cc2O)c1-c1ccc(CN2CCOCC2)cc1 [Luminespib] (partner 0.01 µM) . Is its relative viability strictly less than 0.7?
Condition not met

Consider the compound O=c1cc(N2CCOCC2)oc2c(-c3cccc4c3sc3ccccc34)cccc12 + CC1(C)CCC(c2ccc(Cl)cc2)=C(CN2CCN(c3ccc(C(=O)NS(=O)(=O)c4ccc(N[C@H](CCN5CCOCC5)CSc5ccccc5)c(S(=O)(=O)C(F)(F)F)c4)cc3)CC2)C1 [Navitoclax] (partner 0.5 µM) . Is its relative viability strictly less than 0.7?
Condition not met

Consider the compound CCN(CC)CCCCNc1ncc2cc(-c3cc(OC)cc(OC)c3)c(NC(=O)NC(C)(C)C)nc2n1 + Nc1nc2[nH]cc(CCc3ccc(C(=O)N[C@@H](CCC(=O)O)C(=O)O)cc3)c2c(=O)[nH]1 [Pemetrexed] (partner 0.2 µM) . Is its relative viability strictly less than 0.7?
Condition met

Consider the compound CCN(CC)CCCCNc1ncc2cc(-c3cc(OC)cc(OC)c3)c(NC(=O)NC(C)(C)C)nc2n1 + NC(=O)Nc1cc(-c2cccc(F)c2)sc1C(=O)N[C@H]1CCCNC1 [AZD7762] (partner 0.2 µM) . Is its relative viability strictly less than 0.7?
Condition met

Consider the compound CCN(CC)CCCCNc1ncc2cc(-c3cc(OC)cc(OC)c3)c(NC(=O)NC(C)(C)C)nc2n1 + O=C(c1cc(Cc2n[nH]c(=O)c3ccccc23)ccc1F)N1CCN(C(=O)C2CC2)CC1 [Olaparib] (partner 8 µM) . Is its relative viability strictly less than 0.7?
Condition met
